- measuredTarget: Cytochrome P450 2C9 (Homo sapiens) (UniProt P11712)
- Sequence (P11712 whole entry, looked up): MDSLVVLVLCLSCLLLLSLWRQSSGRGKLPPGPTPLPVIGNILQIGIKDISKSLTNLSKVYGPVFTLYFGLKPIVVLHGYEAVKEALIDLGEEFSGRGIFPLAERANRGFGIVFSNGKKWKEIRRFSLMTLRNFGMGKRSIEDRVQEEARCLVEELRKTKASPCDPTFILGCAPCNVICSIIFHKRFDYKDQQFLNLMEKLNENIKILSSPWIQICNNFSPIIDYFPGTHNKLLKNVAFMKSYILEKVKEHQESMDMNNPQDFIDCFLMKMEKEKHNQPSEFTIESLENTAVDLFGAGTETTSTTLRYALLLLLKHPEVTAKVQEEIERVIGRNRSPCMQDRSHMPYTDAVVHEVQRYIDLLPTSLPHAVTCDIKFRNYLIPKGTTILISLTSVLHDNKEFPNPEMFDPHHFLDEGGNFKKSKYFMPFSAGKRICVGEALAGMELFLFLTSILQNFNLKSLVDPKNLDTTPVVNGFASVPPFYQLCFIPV
- assayDetails: Cytochrome panel assay with activity outcomes
- experimentalConditions: recombinant CYP, pro-luciferin dealkylation, luminescence, p450-cyp2c9; series mostly up to 57.1 µM
- Description: The P450 gene superfamily is involved in the metabolism and clearance of xenobiotics. This assay used various human CYP P450 isozymes to measure the dealkylation of various pro-luciferin substrates to luciferin. The luciferin is then measured by luminescence after the addition of a luciferase detection reagent. […] Inhibitors and some substrates limit the production of luciferin, and decrease measured luminescence. […] 8, Detection, 1 sec, ViewLux luminescent read […]
Screen size: about 16,000 compounds; about 4,000 (25%) were called active. Roughly 26% stayed inconclusive and do not appear here. Calls follow the shape of the dose curve; as a rule, active = well fitted curve in the direction sought with a large enough effect; inconclusive = small, poorly fitted or top-dose-only effect, or effect the other way; inactive = no such curve, though single readings can be large or run the other way. Not all results are given here.
Please reply with one of these outcomes: T (active), F (inactive)

Use the examples below as a reference point.
CCCCC(=O)Nc1ccc(C(=O)NNC(=O)CCc2ccccc2)cc1	F
N=C(N)SCCc1ccc(OCc2ccc([N+](=O)[O-])cc2)cc1	F
N#CCCn1c(=O)c(-c2cc(F)cc(F)c2)nc2cnc(Nc3ccccc3)nc21	F

Attention now shifts to the item below.
Short answer needed: outcome of this test for `O=C(NCCCc1ccccc1)c1cccs1` ? T
